# Experiment: Rat in vivo pharmacokinetics study after oral administration of product A, B or C
# Parameters: species or system Male Sprague-Dawley (SD) rats
# Measurement Context: male, Sprague-Dawley, rat, plasma, po, 10 mL·kg^−1, rats, oral product A, 10 mL·kg^−1; read-out: T 1/2z
Measurement Kind: half-life (h)

Ask | Entry under review: O=C(O)/C=C/c1ccc(O)c(O)c1 . Reported half-life?
Reply | 6

1: O=C(/C=C/c1ccc(O)c(O)c1)O[C@@H]1C[C@](O)(C(=O)O)C[C@@H](O)[C@H]1O
2: O=c1c(-c2ccc(O)cc2)coc2cc(O)cc(O)c12
Ask | Exercise: compare 1 and 2 ; which one has the greater half-life? Provide the label of your selected option as the answer.
Reply | 2
(2: 10 h, 1: 5.37 h)

###

# Experiment: Rat in vivo pharmacokinetics study after oral administration of product A, B or C
# Design: species or system Male Sprague-Dawley (SD) rats
# Measurement Context: male, Sprague-Dawley, rat, plasma, po, 10 mL·kg^−1, rats, oral product A, 10 mL·kg^−1
Measurement Kind: AUC(0-inf) (ng·h/mL)

Example molecules with recorded AUC(0-inf):
Ask | Entry under review: O=c1cc(-c2ccc(O)c(O)c2)oc2cc(O[C@@H]3O[C@H](CO)[C@@H](O)[C@H](O)[C@H]3O)cc(O)c12 [Luteoloside] . Reported AUC(0-inf)?
Reply | 2.97

Ask | Entry under review: O=c1c(-c2ccc(O)cc2)coc2cc(O)cc(O)c12 . Reported AUC(0-inf)?
Reply | 240

A: O=c1cc(-c2ccc(O)c(O)c2)oc2cc(O)cc(O)c12
B: O=c1c(-c2ccc(O)cc2)coc2cc(O[C@@H]3O[C@H](CO)[C@@H](O)[C@H](O)[C@H]3O)cc(O)c12
Ask | Exercise: compare A and B ; which one has the greater AUC(0-inf)? Provide the label of your selected option as the answer.
Reply | A
(A: 88.3 ng·h/mL, B: 0.63 ng·h/mL)

###

# Experiment: Rat in vivo pharmacokinetics study after oral administration of product A, B or C
# Set-up: species or system Male Sprague-Dawley (SD) rats
# Measurement Context: rats, oral
Measurement Kind: bioavailability in product C group compared with that in product A group

Ask | Entry under review: O=c1c(O[C@@H]2O[C@H](CO)[C@H](O)[C@H](O)[C@H]2O)c(-c2ccc(O)c(O)c2)oc2cc(O)cc(O)c12 [Hyperoside] . Reported bioavailability in product C group compared with that in product A group?
Reply | significantly higher

Ask | Entry under review: C[C@@H]1O[C@@H](OC[C@H]2O[C@@H](Oc3c(-c4ccc(O)c(O)c4)oc4cc(O)cc(O)c4c3=O)[C@H](O)[C@@H](O)[C@@H]2O)[C@H](O)[C@H](O)[C@H]1O [Rutin] . Reported bioavailability in product C group compared with that in product A group?
Reply | significantly higher

###

# System: Caco-2 cells
# Experiment: In vitro Caco-2 monolayer model, apical to basolateral transport (P app)
# Format: in vitro ADME, human
# Measurement Context: Caco-2 monolayer, HBSS pH 6.0, apical to basolateral
Measurement Kind: P app in product C group, % compared to that in product A group (%)

Example compounds with recorded P app in product C group, % compared to that in product A group:
Ask | Form: Entry = O=c1cc(-c2ccc(O)c(O)c2)oc2cc(O[C@@H]3O[C@H](CO)[C@@H](O)[C@H](O)[C@H]3O)cc(O)c12 [Luteoloside] | System = Caco-2 cells | P app in product C group, % compared to that in product A group = ____
Reply | 174

Ask | Form: Entry = O=C(/C=C/c1ccc(O)c(O)c1)O[C@@H]1C[C@](O)(C(=O)O)C[C@@H](O)[C@H]1O | System = Caco-2 cells | P app in product C group, % compared to that in product A group = ____
Reply | 140

Ask | Form: Entry = O=c1c(O[C@@H]2O[C@H](CO)[C@@H](O)[C@H](O)[C@H]2O)c(-c2ccc(O)cc2)oc2cc(O)cc(O)c12 | System = Caco-2 cells | P app in product C group, % compared to that in product A group = ____
Reply | 131

Ask | Form: Entry = O=C(/C=C/c1ccc(O)c(O)c1)O[C@H]1[C@H](O)C[C@](O)(C(=O)O)C[C@H]1O | System = Caco-2 cells | P app in product C group, % compared to that in product A group = ____
Reply | 133

Ask | Form: Entry = O=C(O)/C=C/c1ccc(O)c(O)c1 | System = Caco-2 cells | P app in product C group, % compared to that in product A group = ____
Reply | 275

1: O=c1c(-c2ccc(O)cc2)coc2cc(O)cc(O)c12
2: O=C(/C=C/c1ccc(O)c(O)c1)O[C@@H]1C[C@](O)(C(=O)O)C[C@@H](OC(=O)/C=C/c2ccc(O)c(O)c2)[C@H]1O
Ask | Exercise: compare 1 and 2 ; which one has the greater P app in product C group, % compared to that in product A group? Provide the label of your selected option as the answer.
Reply | 1

###

# Tested on: Caco-2 cells
# Experiment: In vitro Caco-2 monolayer model, apical to basolateral transport (P app)
# Assay type: in vitro ADME, human
# Measurement Context: Caco-2 monolayer, HBSS pH 6.0, apical to basolateral
Measurement Kind: P app in product C group, % compared to that in product A group (%)

Ask | Entry under review: O=c1c(O[C@@H]2O[C@H](CO)[C@@H](O)[C@H](O)[C@H]2O)c(-c2ccc(O)c(O)c2)oc2cc(O)cc(O)c12 [Isoquercitrin] . Reported P app in product C group, % compared to that in product A group?
Reply | 169

Ask | Entry under review: O=c1c(-c2ccc(O)cc2)coc2cc(O[C@@H]3O[C@H](CO)[C@@H](O)[C@H](O)[C@H]3O)cc(O)c12 [Genistin] . Reported P app in product C group, % compared to that in product A group?
Reply | 165

Ask | Entry under review: O=C(/C=C/c1ccc(O)c(O)c1)O[C@@H]1C[C@@](O)(C(=O)O)C[C@@H](O)[C@@H]1O [Neochlorogenic acid] . Reported P app in product C group, % compared to that in product A group?
Reply | 136

Ask | Entry under review: O=C(C=Cc1ccc(O)c(O)c1)OC1CC(O)(C(=O)O)CC(O)C1OC(=O)C=Cc1ccc(O)c(O)c1 (stereo not shown) [3,4-dicaffeoylquinic acid] . Reported P app in product C group, % compared to that in product A group?
Reply | 137

###

# Experiment: Rat in vivo pharmacokinetics study after oral administration of product A, B or C
# Set-up: species or system Male Sprague-Dawley (SD) rats
# Measurement Context: male, Sprague-Dawley, rat, plasma, po, 10 mL·kg^−1, rats, oral product A, 10 mL·kg^−1
Measurement Kind: AUC(0-inf) (ng·h/mL)

Ask | Entry under review: O=C(/C=C/c1ccc(O)c(O)c1)O[C@H]1[C@H](O)C[C@](O)(C(=O)O)C[C@H]1O . Reported AUC(0-inf)?
Reply | 196

Ask | Entry under review: C[C@@H]1O[C@@H](OC[C@H]2O[C@@H](Oc3c(-c4ccc(O)c(O)c4)oc4cc(O)cc(O)c4c3=O)[C@H](O)[C@@H](O)[C@@H]2O)[C@H](O)[C@H](O)[C@H]1O . Reported AUC(0-inf)?
Reply | 10.3

Ask | Entry under review: O=C(/C=C/c1ccc(O)c(O)c1)O[C@@H]1C[C@](O)(C(=O)O)C[C@@H](OC(=O)/C=C/c2ccc(O)c(O)c2)[C@H]1O . Reported AUC(0-inf)?
Reply | 71.5

1: COC(=O)C1=CO[C@@H](O[C@@H]2O[C@H](CO)[C@@H](O)[C@H](O)[C@H]2O)[C@@H]2[C@@H](C)[C@@H](O)C[C@H]12
2: O=C(C=Cc1ccc(O)c(O)c1)OC1CC(O)(C(=O)O)CC(O)C1OC(=O)C=Cc1ccc(O)c(O)c1 (stereo not drawn)
3: O=c1c(O)c(-c2ccc(O)c(O)c2)oc2cc(O)cc(O)c12
Ask | Arrange the 3 entries by AUC(0-inf) so the values rise. To answer, write out the labels according to the requested order.
Reply | 2, 1, 3
(2: 22.9 ng·h/mL, 1: 92.9 ng·h/mL, 3: 144 ng·h/mL)

###

# Test system: Caco-2 cells
# Experiment: In vitro Caco-2 monolayer model, apical to basolateral transport (P app)
# Type: in vitro ADME, human
# Measurement Context: Caco-2 monolayer, HBSS pH 6.0, apical to basolateral
Measurement Kind: P app in product C group, % compared with that in product B group (%)

Ask | Form: Entry = C[C@@H]1O[C@@H](OC[C@H]2O[C@@H](OCCc3ccc(O)c(O)c3)[C@H](O)[C@@H](O)[C@@H]2OC(=O)/C=C/c2ccc(O)c(O)c2)[C@H](O)[C@H](O)[C@H]1O [Forsythoside A] | System = Caco-2 cells | P app in product C group, % compared with that in product B group = ____
Reply | 165

Ask | Form: Entry = O=c1c(O)c(-c2ccc(O)c(O)c2)oc2cc(O)cc(O)c12 | System = Caco-2 cells | P app in product C group, % compared with that in product B group = ____
Reply | 256

Ask | Form: Entry = O=c1c(O[C@@H]2O[C@H](CO)[C@@H](O)[C@H](O)[C@H]2O)c(-c2ccc(O)c(O)c2)oc2cc(O)cc(O)c12 | System = Caco-2 cells | P app in product C group, % compared with that in product B group = ____
Reply | 234

Ask | Form: Entry = C[C@@H]1O[C@@H](OC[C@H]2O[C@@H](Oc3c(-c4ccc(O)c(O)c4)oc4cc(O)cc(O)c4c3=O)[C@H](O)[C@@H](O)[C@@H]2O)[C@H](O)[C@H](O)[C@H]1O | System = Caco-2 cells | P app in product C group, % compared with that in product B group = ____
Reply | 210

Ask | Form: Entry = O=c1c(O[C@@H]2O[C@H](CO)[C@H](O)[C@H](O)[C@H]2O)c(-c2ccc(O)c(O)c2)oc2cc(O)cc(O)c12 [Hyperoside] | System = Caco-2 cells | P app in product C group, % compared with that in product B group = ____
Reply | 195

A: O=C(O)[C@]1(O)C[C@@H](O)[C@@H](O)[C@H](O)C1
B: O=C(O)/C=C/c1ccc(O)c(O)c1
C: COc1cc(C[C@H]2C(=O)OC[C@@H]2Cc2ccc(OC)c(OC)c2)ccc1O
Ask | Arrange the 3 entries by P app in product C group, % compared with that in product B group so the values rise. To answer, write out the labels according to the requested order.
Reply | A, C, B
